# MFI annotations
# assayed.system: T1, human TREM2 expressed on cells (human, UniProt Q9NZC2 19-230)
# T1 construct: BW5147.G.1.4 cells stably expressing human TREM2 together with Dap12, or endogenous TREM2 of primary human myeloid cells; also called huT2 BW; hTREM2 expressing cell line
# T1 sequence: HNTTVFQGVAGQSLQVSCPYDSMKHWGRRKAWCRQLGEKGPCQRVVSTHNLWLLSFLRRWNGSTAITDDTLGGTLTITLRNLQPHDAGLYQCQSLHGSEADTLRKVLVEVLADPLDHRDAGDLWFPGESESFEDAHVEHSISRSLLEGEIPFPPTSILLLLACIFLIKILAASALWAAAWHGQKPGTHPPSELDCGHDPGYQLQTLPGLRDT
# experiment.notes: FACS, human DCs; note: test concentration or dose not given here

[
  {
    "binder": "AL2p-55 (antibody, V domains shown, same VH/VL entries as AL2p-56; Fab and IgG formats under one id) VH: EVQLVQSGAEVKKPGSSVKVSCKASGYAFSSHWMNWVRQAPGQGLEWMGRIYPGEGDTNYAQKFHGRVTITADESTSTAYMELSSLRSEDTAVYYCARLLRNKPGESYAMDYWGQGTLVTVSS VL: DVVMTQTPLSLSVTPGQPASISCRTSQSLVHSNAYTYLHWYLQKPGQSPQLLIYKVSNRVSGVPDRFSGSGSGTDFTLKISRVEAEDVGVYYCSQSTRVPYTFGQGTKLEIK",
    "unit.string": "MFI",
    "MFI": 141
  },
  {
    "binder": "AL2p-48 (antibody, V domains shown, Fab and IgG formats under one id) VH: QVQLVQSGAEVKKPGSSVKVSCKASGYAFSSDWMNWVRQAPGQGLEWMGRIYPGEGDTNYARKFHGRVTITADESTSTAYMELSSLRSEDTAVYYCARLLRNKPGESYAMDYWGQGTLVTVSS VL: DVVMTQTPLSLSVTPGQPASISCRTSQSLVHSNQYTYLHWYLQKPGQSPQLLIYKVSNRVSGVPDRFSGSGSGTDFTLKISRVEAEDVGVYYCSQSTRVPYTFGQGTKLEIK",
    "unit.string": "MFI",
    "MFI": 408
  }
]
